SYSTEM TESTED: catalytic domain of human MMP9 (human, UniProt P14780 107-444, limits assumed)
Sequence (P14780 107-444 limits assumed): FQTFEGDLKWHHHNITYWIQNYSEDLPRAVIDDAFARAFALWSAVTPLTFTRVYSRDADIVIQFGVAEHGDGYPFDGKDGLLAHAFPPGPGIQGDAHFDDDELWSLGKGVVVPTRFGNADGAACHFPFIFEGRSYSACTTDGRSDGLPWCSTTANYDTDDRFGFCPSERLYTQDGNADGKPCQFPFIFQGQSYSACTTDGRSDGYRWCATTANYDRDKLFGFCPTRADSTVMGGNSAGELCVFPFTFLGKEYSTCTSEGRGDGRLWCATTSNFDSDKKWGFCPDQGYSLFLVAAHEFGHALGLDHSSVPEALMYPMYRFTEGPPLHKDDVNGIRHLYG
PROTOCOL TEXT: cell-based or functional assay
So basically: MMP9 Inhibition Shift at 20 fold or higher? That is true (1). Lower than 20 fold? That is false (0).

Would you please look over these solved cases?
# BINDER, CLASSIFICATION
records = [
    ("TIMP-3 mutein K45N, V47T, F57N, K75N, P77T, K94N, E96T, R138T, G173T (other) CTCSPSHPQDAFCNSDIVIRANVTGKKLVKEGPNGTLVYTIKQMKMYRGFTNMTHVQYIHTEASESLCGLNLTVNKYQYLLTGRVYDGKMYTGLCNFVERWDQLTLSQRKGLNYTYHLGCNCKIKSCYYLPCFVTSKNECLWTDMLSNFTYPGYQSKHYACIRQKGGYCSWYRGWAPPDKSIINATDP", "true (1)"),
    ("TIMP-3 mutein K45N, V47T, F57N, K94N, E96T, D110N, K112T, R186N, K188T (other) CTCSPSHPQDAFCNSDIVIRANVTGKKLVKEGPNGTLVYTIKQMKMYRGFTKMPHVQYIHTEASESLCGLNLTVNKYQYLLTGRVYNGTMYTGLCNFVERWDQLTLSQRKGLNYRYHLGCNCKIKSCYYLPCFVTSKNECLWTDMLSNFGYPGYQSKHYACINQTGGYCSWYRGWAPPDKSIINATDP", "false (0)"),
    ("TIMP-3 mutein K50N, V52T, F57N, K94N, E96T, R138T, G173T (other) CTCSPSHPQDAFCNSDIVIRAKVVGKNLTKEGPNGTLVYTIKQMKMYRGFTKMPHVQYIHTEASESLCGLNLTVNKYQYLLTGRVYDGKMYTGLCNFVERWDQLTLSQRKGLNYTYHLGCNCKIKSCYYLPCFVTSKNECLWTDMLSNFTYPGYQSKHYACIRQKGGYCSWYRGWAPPDKSIINATDP", "true (1)"),
    ("TIMP-3 mutein K45S, F57N, T63N, K65T, K94N, E96T, R138T, G173T (other) CTCSPSHPQDAFCNSDIVIRASVVGKKLVKEGPNGTLVYNITQMKMYRGFTKMPHVQYIHTEASESLCGLNLTVNKYQYLLTGRVYDGKMYTGLCNFVERWDQLTLSQRKGLNYTYHLGCNCKIKSCYYLPCFVTSKNECLWTDMLSNFTYPGYQSKHYACIRQKGGYCSWYRGWAPPDKSIINATDP", "false (0)"),
    ("TIMP-3 mutein K50N, V52T, K94N, E96T, R138T, G173T (other) CTCSPSHPQDAFCNSDIVIRAKVVGKNLTKEGPFGTLVYTIKQMKMYRGFTKMPHVQYIHTEASESLCGLNLTVNKYQYLLTGRVYDGKMYTGLCNFVERWDQLTLSQRKGLNYTYHLGCNCKIKSCYYLPCFVTSKNECLWTDMLSNFTYPGYQSKHYACIRQKGGYCSWYRGWAPPDKSIINATDP", "false (0)"),
]

# input Quick check, MMP9 Inhibition Shift >= 20 fold? TIMP-3 mutein K45E, F57N, K94N, E96T, D110N, K112T, R138T (other) CTCSPSHPQDAFCNSDIVIRAEVVGKKLVKEGPNGTLVYTIKQMKMYRGFTKMPHVQYIHTEASESLCGLNLTVNKYQYLLTGRVYNGTMYTGLCNFVERWDQLTLSQRKGLNYTYHLGCNCKIKSCYYLPCFVTSKNECLWTDMLSNFGYPGYQSKHYACIRQKGGYCSWYRGWAPPDKSIINATDP
# output true (1)

# input Please tell me: is the binder TIMP-3 mutein K45N, V47T, F57N, K94N, E96T, D110N, K112T, G173T, R186Q, K188Q (other) CTCSPSHPQDAFCNSDIVIRANVTGKKLVKEGPNGTLVYTIKQMKMYRGFTKMPHVQYIHTEASESLCGLNLTVNKYQYLLTGRVYNGTMYTGLCNFVERWDQLTLSQRKGLNYRYHLGCNCKIKSCYYLPCFVTSKNECLWTDMLSNFTYPGYQSKHYACIQQQGGYCSWYRGWAPPDKSIINATDP at or over 20 fold in terms of MMP9 Inhibition Shift?
# output false (0)
